Tested on: human TGF-beta1 mRNA
Test: Antisense inhibition of human TGF-beta1 mRNA in HuVEC cells, single 10 nM dose, Lipofectamine 2000 (Example 2)
Assay type: cell-based
Conditions: 10 nM oligonucleotide, HuVEC, relative to untreated control cells; gapmers targeted to SEQ ID NO: 1
In the oligonucleotide strings, read from the 5' end, every base follows the letter of its sugar. An asterisk marks phosphorothioate; unmarked linkages are phosphodiester. Other units and linkages are bracketed, terminal groups are in braces. A string of capitals states the bases alone. e = 2'-O-(2-methoxyethyl) (MOE); [5mC] = 5-methylcytosine; d = 2'-deoxy (DNA)
Catalogue of substances with associated % inhibition
Note: unit % is implicit; provide only the numeric part.

Worked cases, % inhibition given:
1. 413985 (antisense e[5mC]*e[5mC]*d[5mC]*d[5mC]*dG*d[5mC]*dG*d[5mC]*d[5mC]*dT*d[5mC]*d[5mC]*dG*dG*d[5mC]*eT*e[5mC]*e[5mC]*e[5mC]*eA) [compound 413985] = 66
2. 413996 (antisense eA*eA*dG*dT*d[5mC]*dT*dT*dT*dG*d[5mC]*dG*dG*dG*dA*dG*eG*e[5mC]*e[5mC]*eG*eG) [compound 413996] = 51
3. 414024 (antisense eG*e[5mC]*dT*d[5mC]*dG*dG*dG*d[5mC]*dT*d[5mC]*d[5mC]*dG*dG*dT*dT*e[5mC]*eT*eG*e[5mC]*eA) [compound 414024] = 83
4. 414015 (antisense e[5mC]*e[5mC]*dT*dA*dG*dA*dT*dG*dG*dG*d[5mC]*dG*d[5mC]*dG*dA*eT*e[5mC]*eT*eG*eG) [compound 414015] = 83

Here is another substance to look at.
## Task Supply measured % inhibition of 414019 (antisense eG*eG*dA*dA*dA*dT*dA*dA*d[5mC]*d[5mC]*dT*dA*dG*dA*dT*eG*eG*eG*e[5mC]*eG) [compound 414019] in your reply.
## Result 78

---

System: human TGF-beta1 mRNA
Experiment: Dose-dependent antisense inhibition of human TGF-beta1 in HuVEC cells, Lipofectamine 2000, 0.9375-30 nM (Example 3)
Format: cell-based
Conditions: 0.9375 nM, Lipofectamine 2000
In the oligonucleotide strings, read from the 5' end, every base follows the letter of its sugar. An asterisk marks phosphorothioate; unmarked linkages are phosphodiester. Other units and linkages are bracketed, terminal groups are in braces. A string of capitals states the bases alone. e = 2'-O-(2-methoxyethyl) (MOE); [5mC] = 5-methylcytosine; d = 2'-deoxy (DNA)
measure: percent inhibition of TGF-beta1

Worked cases, percent inhibition of TGF-beta1 given:
1) 414102 (antisense eT*eT*dT*dG*dA*dA*d[5mC]*dT*dA*d[5mC]*dA*dT*dG*dG*dG*eT*e[5mC]*e[5mC]*eT*e[5mC]) [compound 414102] = 36%
2) 413979 (antisense eG*eG*d[5mC]*dT*d[5mC]*d[5mC]*d[5mC]*dA*dG*d[5mC]*dG*dG*d[5mC]*dA*dA*e[5mC]*eG*eG*eA*eA) [compound 413979] = 42%
3) 414040 (antisense e[5mC]*eT*d[5mC]*dT*d[5mC]*dT*d[5mC]*d[5mC]*dA*dT*d[5mC]*dT*dT*dT*dA*eA*eT*eG*eG*eG) [compound 414040] = 72%

Here is another substance to look at.
## Task Provide percent inhibition of TGF-beta1, recorded with human TGF-beta1 mRNA, of 414022 (antisense eG*eG*dG*d[5mC]*dT*d[5mC]*d[5mC]*dG*dG*dT*dT*d[5mC]*dT*dG*d[5mC]*eA*e[5mC]*eT*e[5mC]*eT) [compound 414022]
## Result 31%

---

Test system: human TGF-beta1 mRNA
Assay: Antisense inhibition of human TGF-beta1 mRNA in HuVEC cells, single 10 nM dose, Lipofectamine 2000 (Example 2)
Assay type: cell-based
Conditions: 10 nM oligonucleotide, HuVEC, relative to untreated control cells; gapmers targeted to SEQ ID NO: 2
In the oligonucleotide strings, read from the 5' end, every base follows the letter of its sugar. An asterisk marks phosphorothioate; unmarked linkages are phosphodiester. Other units and linkages are bracketed, terminal groups are in braces. A string of capitals states the bases alone. e = 2'-O-(2-methoxyethyl) (MOE); [5mC] = 5-methylcytosine; d = 2'-deoxy (DNA)
Catalogue of substances with associated % inhibition
Note: unit % is implicit; provide only the numeric part.

1) 414083 (antisense eA*eA*d[5mC]*d[5mC]*dT*dG*dG*dA*dG*d[5mC]*dA*d[5mC]*d[5mC]*dT*dG*eG*eT*e[5mC]*eA*eG) [compound 414083] = 42

## Task Supply measured % inhibition of 414107 (antisense eT*eT*d[5mC]*dA*dA*dA*dT*dG*dT*dA*dT*d[5mC]*dT*d[5mC]*dT*eA*eA*eT*eT*eA) [compound 414107] in your reply.
## Result 7

## Task Supply measured % inhibition of 414065 (antisense eA*eA*dA*dT*dG*dA*dA*dG*dG*dG*dA*dG*dG*d[5mC]*dG*eA*eT*e[5mC]*eA*eG) [compound 414065] in your reply.
## Result 24

## Task Supply measured % inhibition of 414119 (antisense eT*eG*dT*dG*d[5mC]*dA*dA*d[5mC]*dA*dA*dA*dT*dG*dT*dT*eT*eA*eT*eT*eG) [compound 414119] in your reply.
## Result 43

## Task Supply measured % inhibition of 414059 (antisense e[5mC]*eA*dA*dG*dA*d[5mC]*dA*dG*dA*dG*dT*dG*dA*d[5mC]*dT*e[5mC]*eT*eA*eG*eA) [compound 414059] in your reply.
## Result 66

## Task Supply measured % inhibition of 414067 (antisense eT*e[5mC]*d[5mC]*dT*dA*dG*dG*dA*dT*dG*d[5mC]*dA*dA*dA*dG*eA*eG*eT*e[5mC]*eT) [compound 414067] in your reply.
## Result 71

## Task Supply measured % inhibition of 414021 (antisense eT*eG*dT*dA*d[5mC]*dA*dG*dG*dG*d[5mC]*dG*dA*dG*d[5mC]*dA*e[5mC]*eG*eG*e[5mC]*e[5mC]) [compound 414021] in your reply.
## Result 74

---

Catalogue of substances with associated % inhibition
Tested on: human TGF-beta1 mRNA
Assay: Antisense inhibition of human TGF-beta1 mRNA in HuVEC cells, single 10 nM dose, Lipofectamine 2000 (Example 2)
Type: cell-based
Settings: 10 nM oligonucleotide, HuVEC, relative to untreated control cells; gapmers targeted to SEQ ID NO: 2
In the oligonucleotide strings, read from the 5' end, every base follows the letter of its sugar. An asterisk marks phosphorothioate; unmarked linkages are phosphodiester. Other units and linkages are bracketed, terminal groups are in braces. A string of capitals states the bases alone. e = 2'-O-(2-methoxyethyl) (MOE); [5mC] = 5-methylcytosine; d = 2'-deoxy (DNA)
Reply with the number and its unit after it.

Worked cases, % inhibition given:
1) 414086 (antisense eT*eT*dG*dA*dA*dT*dT*d[5mC]*d[5mC]*dA*dA*d[5mC]*dA*dA*dT*e[5mC]*eA*e[5mC]*eA*eG) [compound 414086] = 54%
2) 414075 (antisense eG*eA*dT*dT*dA*dG*d[5mC]*d[5mC]*dA*dA*dT*d[5mC]*dA*d[5mC]*dT*e[5mC]*eA*eG*eG*eT) [compound 414075] = 75%
3) 414095 (antisense eA*eA*dT*dT*d[5mC]*d[5mC]*dA*dG*dT*dA*dT*dG*d[5mC]*d[5mC]*dA*eG*eT*eA*eT*eT) [compound 414095] = 46%
4) 414046 (antisense eG*eT*dG*dA*dA*dA*d[5mC]*dA*d[5mC]*d[5mC]*dG*dA*dG*dG*dA*e[5mC]*eA*e[5mC]*e[5mC]*eT) [compound 414046] = 67%

## Task Supply measured % inhibition of 414105 (antisense eG*eA*dT*dA*dT*d[5mC]*dT*dA*dG*dA*dG*dG*dA*dA*dT*eA*eT*e[5mC]*eT*eA) [compound 414105] in your reply.
## Result 27%

## Task Supply measured % inhibition of 414109 (antisense eG*eG*d[5mC]*d[5mC]*dA*dA*dT*dT*dT*d[5mC]*d[5mC]*dA*dT*dT*dG*e[5mC]*eA*eT*e[5mC]*eT) [compound 414109] in your reply.
## Result 80%

## Task Supply measured % inhibition of 414058 (antisense eA*eG*dG*dT*d[5mC]*dA*dA*dG*d[5mC]*d[5mC]*dA*dT*dG*dT*dG*eG*e[5mC]*eA*e[5mC]*e[5mC]) [compound 414058] in your reply.
## Result 81%

---

Catalogue of substances with associated % inhibition
System: human TGF-beta1 mRNA
Assay: Antisense inhibition of human TGF-beta1 mRNA in HuVEC cells, single 10 nM dose, Lipofectamine 2000 (Example 2)
Assay type: cell-based
Settings: 10 nM oligonucleotide, HuVEC, relative to untreated control cells; gapmers targeted to SEQ ID NO: 1
In the oligonucleotide strings, read from the 5' end, every base follows the letter of its sugar. An asterisk marks phosphorothioate; unmarked linkages are phosphodiester. Other units and linkages are bracketed, terminal groups are in braces. A string of capitals states the bases alone. e = 2'-O-(2-methoxyethyl) (MOE); [5mC] = 5-methylcytosine; d = 2'-deoxy (DNA)
Note: unit % is implicit; provide only the numeric part.

Worked cases, % inhibition given:
1. 413990 (antisense eG*e[5mC]*dG*dG*d[5mC]*dA*dA*dA*dG*dG*dG*dA*dG*dG*d[5mC]*eG*eG*eT*e[5mC]*eT) [compound 413990] = 59
2. 413998 (antisense eG*eG*dA*dA*dA*dA*dG*dT*d[5mC]*dT*dT*dT*dG*d[5mC]*dG*eG*eG*eA*eG*eG) [compound 413998] = 13
3. 414008 (antisense e[5mC]*eT*dG*dG*dT*dA*d[5mC]*d[5mC]*dA*dG*dA*dA*dG*dG*dT*eG*eG*eG*eT*eG) [compound 414008] = 89
4. 413973 (antisense e[5mC]*eA*dA*d[5mC]*dG*dG*dA*dA*dA*dA*dG*dT*d[5mC]*dT*d[5mC]*eA*eA*eA*eA*eG) [compound 413973] = 25
5. 414044 (antisense eA*eT*d[5mC]*dT*dA*dA*d[5mC]*dT*dA*d[5mC]*dA*dG*dT*dA*dG*eT*eG*eT*eT*e[5mC]) [compound 414044] = 31
6. 413967 (antisense eG*eA*dT*dG*dG*d[5mC]*d[5mC]*d[5mC]*dA*dG*dG*dG*d[5mC]*dG*d[5mC]*eG*eA*eA*eG*eG) [compound 413967] = 64

## Task Supply measured % inhibition of 414012 (antisense eG*eG*d[5mC]*dG*d[5mC]*dG*dA*dT*d[5mC]*dT*dG*dG*dT*dA*d[5mC]*e[5mC]*eA*eG*eA*eA) [compound 414012] in your reply.
## Result 87

## Task Supply measured % inhibition of 414013 (antisense eT*eG*dG*dG*d[5mC]*dG*d[5mC]*dG*dA*dT*d[5mC]*dT*dG*dG*dT*eA*e[5mC]*e[5mC]*eA*eG) [compound 414013] in your reply.
## Result 90

## Task Supply measured % inhibition of 413970 (antisense eG*e[5mC]*d[5mC]*dT*d[5mC]*dA*dG*dG*d[5mC]*dT*dG*d[5mC]*dT*d[5mC]*d[5mC]*eT*e[5mC]*eG*eG*e[5mC]) [compound 413970] in your reply.
## Result 87

## Task Supply measured % inhibition of 414002 (antisense eG*eG*dT*dG*dG*dG*dT*dG*dG*dT*d[5mC]*dT*dT*dG*dA*eA*eT*eA*eG*eG) [compound 414002] in your reply.
## Result 80
